// each record: one item and its Ki for Prokineticin receptor 1 (Human)
Just the number please, in nM, no unit attached.

INSERT INTO results (compound, target_of_assay, observed_property, obs_value) VALUES
  ('COc1cc(F)cc(CN2CCC(C(=O)N(Cc3cc(Cl)c4c(c3)OCCCO4)CC(C)C)C2)c1 (configuration not stated) [US10780095, Structure TABLE 1.16]', 'Prokineticin receptor 1 (Human)', 'Ki', 373);

--- query ---
Ask: Look up Ki: COc1cc(F)cc(CN2CCC(C(=O)N(Cc3cc(Cl)c4c(c3)OCCCO4)CC(C)C)C2)c1 (configuration not stated) [US10780095, Structure TABLE 1.18]
Reply: 41.5

src = BindingDB's records for patent US10780095
